Recorded values, source patent US20180118829A1.

Field: log10 Kd. Provide a value for each of the binders that follow.
assay-system: Human PD-1 (monovalent antigen) (human, UniProt Q15116 25-167, limits assumed)
Sequence (Q15116 25-167 limits assumed): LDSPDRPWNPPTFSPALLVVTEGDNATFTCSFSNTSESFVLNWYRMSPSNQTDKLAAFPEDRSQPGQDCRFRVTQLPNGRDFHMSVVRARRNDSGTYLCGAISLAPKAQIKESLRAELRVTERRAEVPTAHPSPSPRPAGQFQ
method: ForteBio BLI, IgG on AHQ sensor, monovalent antigen in solution
Friendly reminder: values = log10 of Kd, unit nM.

Example entries and their recorded answers appear below.
antibody 13407 (antibody, V domains shown) VH: QVQLVQSGAEVKKPGASVKVSCKASGYTFPSYYMHWVRQAPGQGLEWMGIINPEGGSTAYAQKFQGRVTMTRDTSTSTVYMELSSLRSEDTAVYYCARGGTYYDYTYWGQGTLVTVSS VL: DIQMTQSPSTLSASVGDRVTITCRASQSISSWLAWYQQKPGKAPKLLIYEASSLESGVPSRFSGSGSGTEFTLTISSLQPDDFATYYCQQYNSFPPTFGGGTKVEIK : 0.59
antibody 13406 (antibody, V domains shown) VH: QVQLVQSGAEVKKPGASVKVSCKASGYTFDQYYMHWVRQAPGQGLEWMGIINPSGGSTAYAQKFQGRVTMTRDTSTSTVYMELSSLRSEDTAVYYCARGGTYYDYTYWGQGTLVTVSS VL: DIQMTQSPSTLSASVGDRVTITCRASQSISSWLAWYQQKPGKAPKLLIYEASSLESGVPSRFSGSGSGTEFTLTISSLQPDDFATYYCQQYNSFPPTFGGGTKVEIK : 0.51
antibody 13405 (antibody, V domains shown) VH: QVQLVQSGAEVKKPGASVKVSCKASGYTFASYYMGWVRQAPGQGLEWMGIINPAGGSTAYAQKFQGRVTMTRDTSTSTVYMELSSLRSEDTAVYYCARHEYGMDVWGQGTTVTVSS VL: DIQMTQSPSTLSASVGDRVTITCRASQSISSWLAWYQQKPGKAPKLLIYEASSLESGVPSRFSGSGSGTEFTLTISSLQPDDFATYYCQQYNSFPPTFGGGTKVEIK : 1.86
antibody 13408 (antibody, V domains shown) VH: QVQLVQSGAEVKKPGASVKVSCKASGYTFSDYYMHWVRQAPGQGLEWMGIINPSGGVTAYAQKFQGRVTMTRDTSTSTVYMELSSLRSEDTAVYYCARGGTYYDYTYWGQGTLVTVSS VL: DIQMTQSPSTLSASVGDRVTITCRASQSISSWLAWYQQKPGKAPKLLIYEASSLESGVPSRFSGSGSGTEFTLTISSLQPDDFATYYCQQYNSFPPTFGGGTKVEIK : 0.08

Next up:
Query: Tell me the measured log10 Kd of antibody 12228 (antibody, V domains shown) VH: QVQLVQSGAEVKKPGASVKVSCKASGYTFTSYYMHWVRQAPGQGLEWMGIINPSGGSTSYAQKFQGRVTMTRDTSTSTVYMELSSLRSEDTAVYYCARGGTYYDYTYWGQGTLVTVSS VL: DIQMTQSPSTLSASVGDRVTITCRASQSISSWLAWYQQKPGKAPKLLIYEASSLESGVPSRFSGSGSGTEFTLTISSLQPDDFATYYCQQYNSFPPTFGGGTKVEIK , please.
Reply: 1.69
